System: PC-3 prostate
ASSAY NAME: NCI-60 one-dose screen, 48 h (100 = growth as untreated, 0 = no growth, -100 = all killed)
CONDITION SUMMARY: 10 µM unless noted
About 83,000 compounds went through this panel and 20% of them were active in at least one assay; those are over-represented in the sample as a whole.
PARAMETER MEASURED: growth (%)
Your answer is read as %, so omit the unit and give the number.

COMPOUND: N#Cc1ccc(-c2ccc3c(c2)NC(=O)/C3=C\c2ccc[nH]2)cc1
PARAMETER MEASURED: growth
REPORTED: 84.7
//
COMPOUND: CSc1nc(O)c(-c2ccccc2)c(=O)[nH]1
PARAMETER MEASURED: growth
REPORTED: 96.9
//
COMPOUND: C/C(=C(/c1ccccc1)c1ccc(OCC(O)CNCCN2CCOCC2)cc1)c1ccccc1 (centres undefined)
PARAMETER MEASURED: growth
REPORTED: 65.4
//
COMPOUND: FCc1nc2nc(Cl)c(Cl)nc2[nH]1
PARAMETER MEASURED: growth
REPORTED: 95.2
//
COMPOUND: NNC(=O)/C(=C\c1ccc([N+](=O)[O-])cc1)CC(=O)c1ccc(Cl)c(Cl)c1
PARAMETER MEASURED: growth
REPORTED: 79.4
//
COMPOUND: COc1ccc(C(=O)/C=C/c2ccc(OCc3ccccc3)c(OC)c2)cc1OC
PARAMETER MEASURED: growth
REPORTED: 46

Task item: Dear colleague, I am looking for the recorded growth of the following compound: Clc1ccc(N2N=C(c3cccc(Nc4ccncc4)c3)CC2c2ccc(Br)cc2)cc1 (centres undefined)
Reply: 22

Task item: Which growth value is on record for CC1(C)[C@H](O)CC[C@]2(C)[C@@H]1CC[C@@]13C[C@@H](CC[C@H]12)[C@@](O)(CO)C3 ?
Reply: 111

Task item: Requested read-out: growth. Entry: [2H]C1([2H])NC([2H])([2H])C([2H])([2H])N(c2ccc(Nc3ncc4cc(C(=O)N(C)C)n(C5CCCC5)c4n3)nc2)C1([2H])[2H]
Reply: 62.3

----------
Tested on: SF-539 CNS
ASSAY NAME: NCI-60 one-dose screen, 48 h
CONDITION SUMMARY: 10 µM unless noted
Compounds without any hit were thinned out: in the full panel of roughly 83,000, 20% have a hit. Activity calls are given as the source filed them. Rule for the calls: active = growth percent below 10; inactive = the rest.
Choose one outcome from this list and give only that: class 1 for active, class 0 for inactive

The following compounds have reported results that may help.
COMPOUND: O=S(=O)(c1ccc(N/N=C\c2ccccc2)cc1)c1ccc(N/N=C/c2ccccc2)cc1
TARGET SYSTEM: SF-539 CNS
ANSWER LABEL: class 0
--
COMPOUND: COc1ccccc1OCC(=O)N1CCCCCC1
TARGET SYSTEM: SF-539 CNS
ANSWER LABEL: class 0
--
COMPOUND: COc1ccc(/C=C2\COc3ccc(-c4ccccc4)cc3C2=O)cc1O
TARGET SYSTEM: SF-539 CNS
ANSWER LABEL: class 1
--
COMPOUND: CCOC(=O)c1c(SC)nn(-c2cc(=O)[nH]c3ccc(Br)cc23)c1N
TARGET SYSTEM: SF-539 CNS
ANSWER LABEL: class 0
--
COMPOUND: CC(=O)OCC(=O)[C@@]1(O)CC[C@H]2[C@@H]3CC(=C(Br)Br)C4=CC(=O)CC[C@]4(C)[C@H]3C(=O)C[C@@]21C
TARGET SYSTEM: SF-539 CNS
ANSWER LABEL: class 0

Task item: Hey, what did the test say about COc1ccc(Nc2nc(N)nc3c2CCc2occc2-3)cc1 ?
Reply: class 0

Task item: Outcome? Clc1ccc(C2CC(c3cccc(Nc4ccncc4)c3)=NN2c2cc(Cl)cc(Cl)c2)cc1 (stereo unspecified)
Reply: class 0

Task item: Hey, what did the test say about COc1ccc(C(=O)/C=C/c2ccc(OCc3ccccc3)c(OC)c2)cc1OC ?
Reply: class 0

Task item: Recorded test call requested for COc1ccc(Nn2c(SCC(=O)Nc3nc(-c4ccc(Cl)cc4)cs3)nc(C)c2C)cc1
Reply: class 0

Task item: Please state the recorded outcome for this compound: COc1ccc(CC(C)=C(c2ccc(OCCN(C)C)cc2)c2ccc(OCCN(C)C)cc2)cc1
Reply: class 0

Task item: # fetch the recorded call for Nc1ccccc1NC(=O)c1ccc(CN2CCC/C(=C\c3cccc(Cl)c3)C2=O)cc1 here
Reply: class 1

Task item: What did this assay record as the result for COc1ccc(-c2nc(N=Nc3c(O)[nH]c4ccccc34)nc(N3CCOCC3)c2C#N)cc1 ?
Reply: class 1

Task item: What was the test verdict on CN(C)C(C(N)=O)c1ccc(Cl)cc1 (stereo unspecified) ?
Reply: class 0

Task item: Short answer needed: outcome of this test for CC(=O)N1N=C(c2cccc(Nc3ccncc3)c2)CC1c1ccc2c(c1)OCO2 (stereo unspecified) ?
Reply: class 0

Task item: Would you mind telling me which call this test gave COc1ccc(-c2nc3sccn3c2/C=C/C(=O)c2cc(OC)c(OC)c(OC)c2)cc1 ?
Reply: class 0

Task item: // outcome(item) with item = O=C1OC(=O)C2C1CC=CC2c1ccccc1 (stereo unspecified)
Reply: class 0

Task item: Please indicate how the test categorized O=C1c2ccccc2-c2c1c1c(NCCCO)nc3ccccc3c1n2Cc1ccccc1 .
Reply: class 1

Task item: // outcome(item) with item = CCCC/C(=N\N=C(N)N)c1ccc(F)cc1
Reply: class 0

Task item: Record lookup: outcome of this test for COc1cc(C2CC(c3cccc(Nc4ccncc4)c3)=NN2c2ccccc2)cc(OC)c1OC (stereo unspecified) ?
Reply: class 0

Task item: Returns: the outcome recorded for CCN(CCNc1cc(OC)cc2cccnc12)CCc1ccccc1 in this assay.
Reply: class 0

Task item: How was c1ccc(Cn2nc3c(c2-c2ccccc2)-c2oncc2CC3)cc1 classified in this test?
Reply: class 0
